Source listed as ChEMBL document CHEMBL3137667.

Conditions: human
quantity kind: Hepatotoxicity (steatosis)
Provide a numeric answer; units are not to be included.

Take a look at these entries with their results.
Cc1ccc(S(=O)(=O)NC(=O)NC2CCCCC2)cc1N [METAHEXAMIDE] : 0
Nc1ccc(S(=O)(=O)Nc2ncccn2)cc1 [SULFADIAZINE] : 0
O=[N+]([O-])c1cc(Cl)cc(-c2cc(Cl)cc([N+](=O)[O-])c2O)c1O [NICLOFOLAN] : 0
COc1ccc2c3c1O[C@H]1[C@@H](O)C=C[C@H]4[C@@H](C2)N(C)CC[C@@]341 [CODEINE] : 0
CC(C)Nc1ncccn1 [ISAXONINE] : 1
Fc1ccc(C(c2ccc(F)cc2)N2CCN(C/C=C/c3ccccc3)CC2)cc1 [FLUNARIZINE] : 0
CCc1nn(CCCN2CCN(c3cccc(Cl)c3)CC2)c(=O)n1CCOc1ccccc1 [NEFAZODONE] : 0
CCN[C@@H](C)Cc1cccc(C(F)(F)F)c1 [DEXFENFLURAMINE] : 0
O=C(O)CCNC(=O)c1ccc(/N=N/c2ccc(O)c(C(=O)O)c2)cc1 [BALSALAZIDE] : 0
CN1Cc2c(N)cccc2C(c2ccccc2)C1 (stereo not given) [NOMIFENSINE] : 0

Below: the item to evaluate.
Q: Hepatotoxicity (steatosis) for C[C@](N)(Cc1ccc(O)c(O)c1)C(=O)O [METHYLDOPA] ?
Ans: 3

###

Recorded measurements of Hepatotoxicity (acute), one per entry
Details: human, serum
Note: the reply should be a number with no unit written.

Previously resolved entries follow.
CN1C(=O)CN=C(c2ccccc2)c2cc(Cl)ccc21 : 12
Cc1oc(=O)oc1CN1CCN(c2cc3c(cc2F)c(=O)c(C(=O)O)c2n3C(C)S2)CC1 (configuration not stated) : 0
CO[C@H]1Cc2c(O)cc(O)cc2O[C@@H]1c1ccc(O)c(O)c1 : 0
N#CN [CYANAMIDE] : 2
Nc1nc(N)c2nc(-c3ccccc3)c(N)nc2n1 : 1

Q: Recorded Hepatotoxicity (acute) for "Cc1nc2n(c(=O)c1CCN1CCC(c3noc4cc(F)ccc34)CC1)CCCC2" , please?
Ans: 6

###

Experiment: Times to onset, minimal and maximal, observed in the indexed observations. [column 'DELAI' in source]
Settings: human
Reported Hepatotoxicity (time to onset) is given for each of the following compounds.

Study these solved cases before continuing.
CN(C)C(=N)N=C(N)N : 1 week - 17 months
COc1ccc(CCN(C)CCCC2(c3ccc(OC)c(OC)c3)S(=O)(=O)CCCS2(=O)=O)cc1OC : 1 month
COc1cc(NS(=O)(=O)c2ccc(N)cc2)nc(OC)n1 : 1 month - 2 months
C1CC1 : 1 day - 2 weeks

Q: Need Hepatotoxicity (time to onset) of FC(F)(F)C(Cl)Br (stereo not drawn) , thanks.
Ans: 1 day - 3 months

Q: Requested read-out: Hepatotoxicity (time to onset). Entry: "COc1ccc2c(c1)c(CC(=O)O)c(C)n2C(=O)c1ccc(Cl)cc1"
Ans: 3 days - 10 years

Q: Quick check: Hepatotoxicity (time to onset) of CC(C)(Oc1ccc(C2CC2(Cl)Cl)cc1)C(=O)O (stereo not drawn) [CIPROFIBRATE] ?
Ans: 24 days - 15 months

Q: Looking for the measured Hepatotoxicity (time to onset) of "CC(C)Nc1ncccn1" , can you help?
Ans: 1 month - 6 months

Q: Query: Hepatotoxicity (time to onset); subject: "O=C(N[C@H](CO)[C@H](O)c1ccc([N+](=O)[O-])cc1)C(Cl)Cl"
Ans: 1 month - 2 months

Q: I am curious: what Hepatotoxicity (time to onset) value has been reported for "NC(N)=Nc1nc(CSCCN/C=N/S(=O)(=O)c2ccc(Br)cc2)cs1" ?
Ans: 2 weeks - 6 months

Q: Can you share its Hepatotoxicity (time to onset)? I mean this compound: "CC1(C)S[C@@H]2[C@H](NC(=O)[C@H](NC(=O)N3CCN(S(C)(=O)=O)C3=O)c3ccccc3)C(=O)N2[C@H]1C(=O)O"
Ans: 2 weeks - 3 weeks

###

Conditions: human
# Hepatotoxicity (benign tumour) values compiled below
Just the number, please, no unit after it.

Recorded results for 2 compounds are shown here.
CCCC(C)C1(CC)C(=O)NC(=S)NC1=O (stereo not drawn) : 0
CC(C(=O)O)c1ccc2c(c1)[nH]c1ccc(Cl)cc12 (stereo not drawn) : 0

From here, focus on the item given below.
Q: Requested read-out: Hepatotoxicity (benign tumour). Entry: "CO[C@@H]1[C@@H](O[C@@H]2O[C@H](C)[C@@H](O[C@H]3C[C@@](C)(O)[C@@H](OC(=O)CC(C)C)[C@H](C)O3)[C@H](N(C)C)[C@H]2O)[C@@H](CC=O)C[C@@H](C)[C@@H](O)/C=C/C=C/C[C@@H](C)OC(=O)C[C@H]1OC(C)=O"
Ans: 0

###

Hepatotoxicity (chronic liver disease): recorded values
Settings: human, serum, 4383 h
Reply briefly: the number, and no unit.

CC[N+](C)(C/C=C/C1=C(C(=O)[O-])N2C(=O)[C@@H](NC(=O)/C(=N\OCF)c3nsc(N)n3)[C@H]2SC1)CC(N)=O (stereo partly drawn) : 0

Attention now turns to another entry.
Q: Record request: Hepatotoxicity (chronic liver disease) value, item "CNc1nc(N(C)C)nc(N(C)C)n1"
Ans: 0

###

Settings: human, serum
Rule: measured Hepatotoxicity (acute) below 2 gets Criterion met; anything equal to or greater than 2 gets Criterion not met.

C[C@@H](O)[C@H]1C(=O)N2C(C(=O)O)=C([C@H]3CCCO3)S[C@H]12 : Criterion met
S=P(N1CC1)(N1CC1)N1CC1 : Criterion met
CCC(COC(=O)c1cc(OC)c(OC)c(OC)c1)(c1ccccc1)N(C)C (configuration not stated) : Criterion met

Q: Dear colleague, could you confirm whether Hepatotoxicity (acute) of "O=C(c1cc(O)c(O)c(O)c1)c1ccc(O)c(O)c1O" falls below 2? Thanks.
Ans: Criterion not met

Q: Hepatotoxicity (acute) strictly < 2 for this molecule? "CN1C(C(=O)Nc2ccccn2)=C(O)c2ccccc2S1(=O)=O"
Ans: Criterion not met

Q: Here's an entry: CC(=O)[C@@]1(O)CC[C@H]2[C@@H]3CCC4=CC(=O)CC[C@]4(C)[C@H]3CC[C@@]21C [HYDROXYPROGESTERONE] . Is its Hepatotoxicity (acute) below 2?
Ans: Criterion met

Q: Does COc1cc([C@@H]2c3cc4c(cc3[C@@H](O[C@@H]3O[C@@H]5CO[C@@H](C)O[C@H]5[C@H](O)[C@H]3O)[C@H]3COC(=O)[C@H]23)OCO4)cc(OC)c1O [ETOPOSIDE] have Hepatotoxicity (acute) strictly under 2?
Ans: Criterion not met

Q: Field: below-cutoff. Rule: recorded Hepatotoxicity (acute) strictly less than 2. Subject: "CO[C@H]1/C=C/O[C@@]2(C)Oc3c(C)c(O)c4c(O)c(cc(O)c4c3C2=O)NC(=O)/C(C)=C\C=C\[C@H](C)[C@H](O)[C@@H](C)[C@@H](O)[C@@H](C)[C@H](OC(C)=O)[C@@H]1C"
Ans: Criterion not met

###

Details: human
*1 amine or outer side, *2 acyl side, *3 side chain or, on linkers, in order; H or OH if unused. Where a SMILES comes first, the peptide text is derived from it. Bridges are numbered along the chain shown (N, C = ends). [ ]: non-standard residue; d: D form. The star is where a group is joined. ξ: configuration not given here. X2 = N=C1NCCC([C@H](N[*:1])C(=O)[*:2])N1; ΔAla(Z-3-ureido) = NC(=O)N/C=C(\N)C(=O)O; ξβ3hOrn = NCCCC(N)CC(=O)*; Dap = NC[C@H](N)C(=O)O
Below is a list of entries, each paired with its recorded Hepatotoxicity (severe hepatitis) value.
Answer field: number only, no words.

Examples with their reported Hepatotoxicity (severe hepatitis) follow.
CN1CCN(CCCN2c3ccccc3Sc3ccccc32)CC1 [PERAZINE] : 0
Cc1c(O)cccc1C(=O)N[C@@H](CSc1ccccc1)[C@H](O)CN1C[C@H]2CCCC[C@H]2C[C@H]1C(=O)NC(C)(C)C : 0
CC(=O)S[C@@H]1CC2=CC(=O)CC[C@]2(C)[C@H]2CC[C@@]3(C)[C@@H](CC[C@@]34CCC(=O)O4)[C@H]12 [SPIRONOLACTONE] : 0

Q: Value lookup for Hepatotoxicity (severe hepatitis); key = C[C@@H]1NC(=O)[C@@H](N)CNC(=O)[C@H](C2CCNC(=N)N2)NC(=O)/C(=C/NC(N)=O)NC(=O)[C@H](CNC(=O)CC(N)CCCN)NC1=O.N=C1NCCC([C@@H]2NC(=O)/C(=C/NC(N)=O)NC(=O)[C@H](CNC(=O)CC(N)CCCN)NC(=O)[C@H](CO)NC(=O)[C@@H](N)CNC2=O)N1 (stereo partly drawn) [CAPREOMYCIN] (H-[Dap]S[Dap](ξβ3hOrn)[ΔAla(Z-3-ureido)][X2]; lactam 1-C)
Ans: 0

Q: Any idea what Hepatotoxicity (severe hepatitis) was measured for CC[C@H]1OC(=O)[C@H](C)[C@@H](O[C@H]2C[C@@](C)(OC)[C@@H](O)[C@H](C)O2)[C@H](C)[C@@H](O[C@@H]2O[C@H](C)C[C@H](N(C)C)[C@H]2O)[C@](C)(O)C[C@@H](C)/C(=N\OCOCCOC)[C@H](C)[C@@H](O)[C@]1(C)O [ROXITHROMYCIN] ?
Ans: 2
